tested on: COLO205; assay: In vitro cytostatic effect (SRB): COLO205, Intestinal cancer; conditions: read-out: LC50, 48-hour incubation
Entries annotated with measured CC50

# compound, CC50
data = [
    ("CCCCCCCCCCCCCCCCCCOC(COP(=O)(O)OCC1OC(n2cc(F)c(=O)[nH]c2=O)CC1O)COP(=O)(O)OCC1OC(n2ccc(N)nc2=O)C(O)C1O (racemic)", "> 100 µM"),
]

Continue with the next compound.
Ask: Consider the compound Nc1ccn(C2CCC(COP(=O)(O)OCC(O)COP(=O)(O)OCC3OC(n4cc(F)c(=O)[nH]c4=O)CC3O)O2)c(=O)n1 (racemic) and give its measured CC50.
Result: > 100 µM

---

test system: MOLT-4; assay: In vitro cytostatic effect (SRB): MOLT-4, Leukemia; conditions: read-out: LC50, 48-hour incubation
Listing of recorded CC50 by entry.

# compound, CC50
measured = [
    ("CCCCCCCCCCCCCCCCCCOC(COP(=O)(O)OCC1OC(n2cc(F)c(=O)[nH]c2=O)CC1O)COP(=O)(O)OCC1OC(n2ccc(N)nc2=O)C(O)C1O (racemic)", "> 100 µM"),
]

Ask: Return reported CC50; argument: Nc1ccn(C2CCC(COP(=O)(O)OCC(O)COP(=O)(O)OCC3OC(n4cc(F)c(=O)[nH]c4=O)CC3O)O2)c(=O)n1 (racemic)
Result: > 100 µM

---

Readings of CC50 for the listed compounds
tested on: MDA-N; test: In vitro cytostatic effect (SRB): MDA-N, Breast cancer; conditions: read-out: LC50, 48-hour incubation

# compound, measured_property, readout_value
measured = [
    ("CCCCCCCCCCCCCCCCCCOC(COP(=O)(O)OCC1OC(n2cc(F)c(=O)[nH]c2=O)CC1O)COP(=O)(O)OCC1OC(n2ccc(N)nc2=O)C(O)C1O (racemic) [NSC 698688-A/1]", "CC50", "> 100 µM"),
]

Ask: For the compound shown here, Nc1ccn(C2CCC(COP(=O)(O)OCC(O)COP(=O)(O)OCC3OC(n4cc(F)c(=O)[nH]c4=O)CC3O)O2)c(=O)n1 (racemic) [NSC 704533] , give the reported CC50.
Result: > 100 µM

---

Catalogue of CC50 values
test system: T-47D; assay: In vitro cytostatic effect (SRB): T-47D, Breast cancer; details: read-out: LC50, 48-hour incubation

# compound, CC50
records = [
    ("CCCCCCCCCCCCCCCCCCOC(COP(=O)(O)OCC1OC(n2cc(F)c(=O)[nH]c2=O)CC1O)COP(=O)(O)OCC1OC(n2ccc(N)nc2=O)C(O)C1O (racemic) [NSC 698688-A/1]", "> 100 µM"),
]

Now look at this one.
Ask: Dear colleague, I am looking for the recorded CC50 of the following compound: Nc1ccn(C2CCC(COP(=O)(O)OCC(O)COP(=O)(O)OCC3OC(n4cc(F)c(=O)[nH]c4=O)CC3O)O2)c(=O)n1 (racemic) [NSC 704533]
Result: > 100 µM

---

test system: RXF 393; assay: In vitro cytostatic effect (SRB): RXF 393, Kidney cancer; details: read-out: LC50, 48-hour incubation
measured_property: CC50 (µM)
Report as a plain number; the unit µM is understood.

Ask: Test system RXF 393; read-out CC50; what value for CCCCCCCCCCCCCCCCCCOC(COP(=O)(O)OCC1OC(n2cc(F)c(=O)[nH]c2=O)CC1O)COP(=O)(O)OCC1OC(n2ccc(N)nc2=O)C(O)C1O (racemic) ?
Result: 80

---

system: NCI/ADR-RES; assay: In vitro cytostatic effect (SRB): NCI/ADR-RES, Breast cancer; settings: read-out: LC50, 48-hour incubation
Recorded measurements of CC50, one per entry

# compound, CC50
measured = [
    ("CCCCCCCCCCCCCCCCCCOC(COP(=O)(O)OCC1OC(n2cc(F)c(=O)[nH]c2=O)CC1O)COP(=O)(O)OCC1OC(n2ccc(N)nc2=O)C(O)C1O (racemic) [NSC 698688-A/1]", "> 100 µM"),
]

Now look at this entry.
Ask: What value of CC50 has been recorded for this entry: Nc1ccn(C2CCC(COP(=O)(O)OCC(O)COP(=O)(O)OCC3OC(n4cc(F)c(=O)[nH]c4=O)CC3O)O2)c(=O)n1 (racemic) [NSC 704533]
Result: > 100 µM

---

test system: SK-MEL-5; experiment: In vitro cytostatic effect (SRB): SK-MEL-5, Melanoma; details: read-out: LC50, 48-hour incubation
Listed here: items and their measured CC50.

# molecule, study_system, CC50
data = [
    ("CCCCCCCCCCCCCCCCCCOC(COP(=O)(O)OCC1OC(n2cc(F)c(=O)[nH]c2=O)CC1O)COP(=O)(O)OCC1OC(n2ccc(N)nc2=O)C(O)C1O (racemic)", "SK-MEL-5", "> 100 µM"),
]

Ask: Given the molecule Nc1ccn(C2CCC(COP(=O)(O)OCC(O)COP(=O)(O)OCC3OC(n4cc(F)c(=O)[nH]c4=O)CC3O)O2)c(=O)n1 (racemic) , what is its reported CC50?
Result: > 100 µM

---

Each entry below carries its recorded CC50.
test system: HS 578T; assay: In vitro cytostatic effect (SRB): HS 578T, Breast cancer; details: read-out: LC50, 48-hour incubation

# compound, CC50
records = [
    ("CCCCCCCCCCCCCCCCCCOC(COP(=O)(O)OCC1OC(n2cc(F)c(=O)[nH]c2=O)CC1O)COP(=O)(O)OCC1OC(n2ccc(N)nc2=O)C(O)C1O (racemic) [NSC 698688-A/1]", "> 100 µM"),
]

Ask: Look at this compound and give its reported CC50. Nc1ccn(C2CCC(COP(=O)(O)OCC(O)COP(=O)(O)OCC3OC(n4cc(F)c(=O)[nH]c4=O)CC3O)O2)c(=O)n1 (racemic) [NSC 704533]
Result: > 100 µM

---

Measured CC50 accompanies every entry in the list below.
system: MALME-3M; assay: In vitro cytostatic effect (SRB): MALME-3M, Melanoma; conditions: read-out: LC50, 48-hour incubation

# compound, readout_value
rows = [
    ("Nc1ccn(C2CCC(COP(=O)(O)OCC(O)COP(=O)(O)OCC3OC(n4cc(F)c(=O)[nH]c4=O)CC3O)O2)c(=O)n1 (racemic)", "> 100 µM"),
]

Ask: # query: CC50 | item CCCCCCCCCCCCCCCCCCOC(COP(=O)(O)OCC1OC(n2cc(F)c(=O)[nH]c2=O)CC1O)COP(=O)(O)OCC1OC(n2ccc(N)nc2=O)C(O)C1O (racemic) | system: MALME-3M
Result: > 100 µM

---

Entries annotated with measured CC50
tested on: OVCAR-4; test: In vitro cytostatic effect (SRB): OVCAR-4, Ovarian cancer; settings: read-out: LC50, 48-hour incubation

# compound, readout_value
rows = [
    ("Nc1ccn(C2CCC(COP(=O)(O)OCC(O)COP(=O)(O)OCC3OC(n4cc(F)c(=O)[nH]c4=O)CC3O)O2)c(=O)n1 (racemic) [NSC 704533]", "> 100 µM"),
]

Ask: Need CC50 of CCCCCCCCCCCCCCCCCCOC(COP(=O)(O)OCC1OC(n2cc(F)c(=O)[nH]c2=O)CC1O)COP(=O)(O)OCC1OC(n2ccc(N)nc2=O)C(O)C1O (racemic) [NSC 698688-A/1] , thanks.
Result: > 100 µM

---

test system: A549/ATCC; test: In vitro cytostatic effect (SRB): A549/ATCC, Lung cancer; details: read-out: LC50, 48-hour incubation
Catalogue of molecules with associated CC50

# molecule, study_system, readout_value
records = [
    ("CCCCCCCCCCCCCCCCCCOC(COP(=O)(O)OCC1OC(n2cc(F)c(=O)[nH]c2=O)CC1O)COP(=O)(O)OCC1OC(n2ccc(N)nc2=O)C(O)C1O (racemic) [NSC 698688-A/1]", "A549/ATCC", "> 100 µM"),
]

Could you now consider this next molecule?
Ask: Which CC50 is reported with A549/ATCC for this entry: Nc1ccn(C2CCC(COP(=O)(O)OCC(O)COP(=O)(O)OCC3OC(n4cc(F)c(=O)[nH]c4=O)CC3O)O2)c(=O)n1 (racemic) [NSC 704533] ?
Result: > 100 µM

---

system: OVCAR-3; experiment: In vitro cytostatic effect (SRB): OVCAR-3, Ovarian cancer; conditions: read-out: LC50, 48-hour incubation
Below, each of the compounds is paired with its reported CC50 value.

# compound, study_system, CC50
measured = [
    ("CCCCCCCCCCCCCCCCCCOC(COP(=O)(O)OCC1OC(n2cc(F)c(=O)[nH]c2=O)CC1O)COP(=O)(O)OCC1OC(n2ccc(N)nc2=O)C(O)C1O (racemic)", "OVCAR-3", "> 100 µM"),
]

We now examine a further compound.
Ask: Which CC50 value belongs to Nc1ccn(C2CCC(COP(=O)(O)OCC(O)COP(=O)(O)OCC3OC(n4cc(F)c(=O)[nH]c4=O)CC3O)O2)c(=O)n1 (racemic) ?
Result: > 100 µM
